Biological target: T1, recombinant purified human IL-12 p70 (human, UniProt P29459 23-219)
T1 construct: Disulfide-linked heterodimer of p35 and p40; also called hIL-12; Hu IL-12
T1 sequence 1: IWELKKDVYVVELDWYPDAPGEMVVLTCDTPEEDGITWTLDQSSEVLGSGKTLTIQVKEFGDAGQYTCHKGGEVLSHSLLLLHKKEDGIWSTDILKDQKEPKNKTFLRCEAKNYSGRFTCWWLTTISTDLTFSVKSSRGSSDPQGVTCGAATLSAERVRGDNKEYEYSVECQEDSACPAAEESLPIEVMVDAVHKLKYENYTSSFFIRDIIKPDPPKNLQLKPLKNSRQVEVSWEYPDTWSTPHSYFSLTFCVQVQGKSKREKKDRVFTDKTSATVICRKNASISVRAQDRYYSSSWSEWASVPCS
T1 sequence 2: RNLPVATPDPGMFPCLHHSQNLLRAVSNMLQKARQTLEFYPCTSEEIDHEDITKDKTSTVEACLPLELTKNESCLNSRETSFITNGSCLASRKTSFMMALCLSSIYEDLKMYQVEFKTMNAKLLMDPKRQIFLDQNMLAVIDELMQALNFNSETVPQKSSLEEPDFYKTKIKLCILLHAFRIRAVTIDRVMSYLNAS
Assay: SPR (BIAcore) as in Example 1.1.B
# reported kon; entries follow
Endpoint Name: kon

[[record]]
binder = "anti-IL-12p40 hybrid antibody 1A6.4 (antibody, human IgG1, kappa, L234A L235A, V domains shown, Hybrid: chimeric murine H chain paired with CDR-grafted L chain) VH: QVTLKESGPGILKPSQTLSLTCSFSGFSLSTSGMGVSWIRQPSGKGLEWLAHIWWDGDNYYNPSLKSQLTISKDTSRNQVFLRIATVDTADTATYYCARRTRVNYAMDYWGQGTSVTVSS VL: EIVMTQSPATLSVSPGERATLSCKASQSVSNDVAWYQQKPGQAPRLLIYYASNRYTGIPARFSGSGSGTEFTLTISSLQSEDFAVYYCQQDYNSPWTFGGGTKVEIKR"
observed_value = "110000 M⁻¹ s⁻¹"

[[record]]
binder = "anti-IL-12p40 hybrid antibody 1A6.3 (antibody, human IgG1, kappa, L234A L235A, V domains shown) VH: EVTLKESGPVLVKPTETLTLTCTVSGFSLSTSGMGVSWIRQPPGKALEWLAHIWWDGDNYYNPSLKSRLTISKDTSKSQVVLTMTNMDPVDTATYYCARRTRVNYAMDYWGQGTTVTVSS VL: SVVMTQTPKFLLVSAGDRVTITCKASQSVSNDVAWFQQKPGQSPKLLIYYASNRYTGVPDRFTGSGYGTDFTFTISTVQAEDLAVYFCQQDYNSPWTFGGGTKLEIKR"
observed_value = "190000 M⁻¹ s⁻¹"

[[record]]
binder = "anti-IL-12p40 hybrid antibody 1D4.5 (antibody, human IgG1, kappa, L234A L235A, V domains shown) VH: QVTLKESGPGILQPSQTLSLTCSFSGFSLRKSVMGVSWIRQPSGKGLEWLAHIYWDDDKYYNPSLKSRLTISKDPSRNQVFLKITSVDTADAATYYCTRRGIRSAMDYWGQGTSVTVSS VL: DIVMTQSPDSLAVSLGERATINCKASQSVSNDVAWYQQKPGQPPKLLIYYASNRYTGVPDRFSGSGSGTDFTLTISSLQAEDVAVYYCQQDYNSPWTFGGGTKVEIKR"
observed_value = "300000 M⁻¹ s⁻¹"

